run-description: NCI Yeast Anticancer Drug Screen. Data for the sgs1 mgt1 strain (AID 161);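 also: 0% = growth of cultures given vehicle only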
run-parameters: S. cerevisiae sgs1 mgt1 strain, at 50.0 µM, stronger effect = higher value
The panel holds about 79,000 compounds, 15% with a hit somewhere; the sample as a whole holds those more often.
# growth inhibition per record follows
Write down the numeric answer in % and omit the unit.

Below are worked cases with known answers.
CCOC(=O)c1c(NC(=O)CCl)ssc1=S : 42.5
CC1(C)CCCC(C)(C)C1=NO : -9.75
CCOC(=O)NC(Nc1ccc(C(=O)OCC)cc1)(C(F)(F)F)C(F)(F)F : -15.2

Prompt: Query (molecule): `CN(/N=C/c1ccccn1)C1=NCCN1` ; field requested: growth inhibition
Response: -31.2

###

# growth inhibition per record follows
run-description: NCI Yeast Anticancer Drug Screen. Data for the cln2 rad14 strain (AID 165);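 also: 0% = growth equal to vehicle treated cultures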
run-parameters: S. cerevisiae cln2 rad14 strain, at 50.0 µM, stronger effect = higher value
This is part of a sample that, as a whole, favours compounds with a hit. Of some 79,000 tested, about 15% had one in any assay.
Write down the numeric answer in % and omit the unit.

CC(=O)C(c1ccccc1)S(=O)(=O)c1ccc(C)cc1 (stereo not drawn) : -42.4

Prompt: Query (molecule): `OCc1ccc(CO)cc1` ; field requested: growth inhibition
Response: -4.2

Prompt: Query (molecule): `O=C(OCc1ccccc1C1CSCSC1)c1cc(C(=O)OCc2ccccc2C2CSCSC2)c(C(=O)OCc2ccccc2C2CSCSC2)cc1C(=O)OCc1ccccc1C1CSCSC1` ; field requested: growth inhibition
Response: 1.65

Prompt: Query (molecule): `CN(C)c1ccc2c(c1[N+](=O)[O-])Cc1ccccc1-2` ; field requested: growth inhibition
Response: 14.6

Prompt: Query (molecule): `CC(=O)N(C)c1ccc(NC(=O)Nc2c(C)cccc2C)cc1` ; field requested: growth inhibition
Response: 4.85

Prompt: Query (molecule): `CCCCNC(=O)c1cc(S(=O)(=O)n2cc[nH]c2=O)c(SC)cc1Cl` ; field requested: growth inhibition
Response: -2.75

Prompt: Query (molecule): `CC(C)CCC[C@@H](C)[C@H]1CC[C@H]2[C@@H]3CC[C@H]4C[C@H](N[C@@H]5CC[C@@]6(C)[C@@H](CC[C@@H]7[C@@H]6CC[C@]6(C)[C@@H]([C@H](C)CCCC(C)C)CC[C@@H]76)C5)CC[C@]4(C)[C@H]3CC[C@]12C` ; field requested: growth inhibition
Response: -2.8

Prompt: Query (molecule): `Cc1ccc(S(=O)(=O)NCCCN(CCCNS(=O)(=O)c2ccc(C)cc2)S(=O)(=O)c2ccc(C)cc2)cc1` ; field requested: growth inhibition
Response: -70.5

###

run-description: NCI Yeast Anticancer Drug Screen. Data for the mlh1 rad18 strain (AID 175)
run-parameters: S. cerevisiae mlh1 rad18 strain growth inhibition; at 50.0 µM; stronger effect = higher value
Compounds without any hit were thinned out: in the full panel of roughly 79,000, 15% have a hit. Active and inactive are the calls of the source. Rule as the data show it: active = growth inhibition above about 70%; inactive = the rest.
property-measured: growth inhibition

Below are worked cases with known answers.
CC(C)(CN1CCCCC1)C(=O)/C=C/c1ccc(Br)cc1 : 55.6% (inactive)
CCCCNC(=O)CCC(NS(=O)(=O)c1ccc(C)cc1)C(=O)NCCCC (centres undefined) : -18.7% (inactive)
CCOC(=O)NOC1CCCCO1 (centres undefined) : 4.95% (inactive)
CCOC(=O)C1/C(=N\N=C2\c3c(nnp3N(CCOS(C)(=O)=O)CCOS(C)(=O)=O)C(C(=O)OCC)C(c3ccc(OC(C)=O)cc3)C2C(=O)OCC)c2c(nnp2N(CCOS(C)(=O)=O)CCOS(C)(=O)=O)C(C(=O)OCC)C1c1ccc(OC(C)=O)cc1 (centres undefined) : -4.5% (inactive)
COc1cccc(C2=NC(C(C)C)CO2)c1OC (centres undefined) : -4.35% (inactive)

Prompt: Query (compound): `Cc1cc(C)c(C)c(C(=O)OC(C)C)c1C` ; field requested: growth inhibition
Response: -8.55% (inactive)

Prompt: Query (compound): `COC(=O)C(C)=C1CCCCC1` ; field requested: growth inhibition
Response: -13.2% (inactive)

Prompt: Query (compound): `C=CCCNC(=S)S` ; field requested: growth inhibition
Response: -3.4% (inactive)
